# System Tested: Phosphatidylinositol 4,5-bisphosphate 3-kinase catalytic subunit gamma isoform (Homo sapiens, UniProt P48736)
# Sequence (P48736 whole entry, looked up, canonical isoform): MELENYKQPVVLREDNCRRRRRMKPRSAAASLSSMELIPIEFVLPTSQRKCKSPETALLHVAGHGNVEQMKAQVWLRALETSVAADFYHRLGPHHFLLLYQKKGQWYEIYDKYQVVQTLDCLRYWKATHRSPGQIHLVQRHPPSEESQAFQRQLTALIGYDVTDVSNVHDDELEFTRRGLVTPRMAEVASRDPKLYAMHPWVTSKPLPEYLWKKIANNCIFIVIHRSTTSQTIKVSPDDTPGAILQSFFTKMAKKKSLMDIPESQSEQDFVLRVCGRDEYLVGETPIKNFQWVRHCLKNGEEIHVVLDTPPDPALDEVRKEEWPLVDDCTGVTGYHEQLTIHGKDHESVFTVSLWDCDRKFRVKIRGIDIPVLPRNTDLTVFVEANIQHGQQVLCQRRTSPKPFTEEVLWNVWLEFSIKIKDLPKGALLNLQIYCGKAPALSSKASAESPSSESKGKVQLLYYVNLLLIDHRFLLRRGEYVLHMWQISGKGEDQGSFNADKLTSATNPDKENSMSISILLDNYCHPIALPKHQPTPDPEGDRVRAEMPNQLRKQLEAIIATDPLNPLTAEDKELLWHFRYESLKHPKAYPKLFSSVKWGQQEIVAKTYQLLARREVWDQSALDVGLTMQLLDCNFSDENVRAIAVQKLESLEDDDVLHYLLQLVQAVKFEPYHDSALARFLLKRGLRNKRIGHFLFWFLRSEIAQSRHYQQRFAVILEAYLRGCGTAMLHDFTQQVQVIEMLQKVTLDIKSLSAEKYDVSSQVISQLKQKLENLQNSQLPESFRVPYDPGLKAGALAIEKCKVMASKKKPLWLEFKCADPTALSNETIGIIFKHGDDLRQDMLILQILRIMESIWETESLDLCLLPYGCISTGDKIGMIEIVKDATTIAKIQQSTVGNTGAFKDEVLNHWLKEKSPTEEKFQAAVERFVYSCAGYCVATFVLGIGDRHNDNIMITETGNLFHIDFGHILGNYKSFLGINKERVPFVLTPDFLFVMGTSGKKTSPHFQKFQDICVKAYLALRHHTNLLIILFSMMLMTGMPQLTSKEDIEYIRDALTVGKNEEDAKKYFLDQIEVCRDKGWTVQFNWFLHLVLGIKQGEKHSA
# Test Method Notes: Inhibition of N-terminal His6-tagged recombinant full length human PI3Kgamma expressed in baculovirus infected Sf21 insect cells at 1 uM by HTRF assay relative to control
Measured Attribute: inhibition

{"Smiles String": "C[C@H]1CC[C@@H](c2nc3cccc(Cl)c3c(=O)n2-c2ccccc2)N1c1ccnc(N)n1", "Measured Attribute": "inhibition", "Val": "100%"}
{"Smiles String": "C[C@H]1CC[C@@H](c2nc3cccc(Cl)c3c(=O)n2-c2cc(F)cc(F)c2)N1c1nc(N)nc(N)c1C#N", "Measured Attribute": "inhibition", "Val": "-8%"}
{"Smiles String": "C[C@H]1CC[C@@H](c2nc3cccc(Cl)c3c(=O)n2N2CCOCC2)N1c1nc(N)nc2[nH]cnc12", "Measured Attribute": "inhibition", "Val": "-2%"}
{"Smiles String": "C[C@H]1CC[C@@H](c2nc3cccc(Cl)c3c(=O)n2-c2ccccc2)N1c1nc(N)nc2[nH]ccc12", "Measured Attribute": "inhibition", "Val": "41%"}

Please turn your attention to the following entry.
Problem: Retrieve inhibition measured for `N#Cc1c(N)nc(N)nc1N1[C@H](c2nc3cccc(F)c3c(=O)n2-c2cc(F)cc(F)c2)C[C@@H]2CCCC[C@@H]21` and print it.
Solution: 75%
